- measurementDescription: In vivo PK in CD-1 mice, plasma and brain by LC-MS/MS
- particulars: male, CD-1, mouse, plasma, po, 10 mg/kg, MRTInf_obs, 10 mg/kg PO, sampling 0.5, 1, 3, 5 h
- Protocol: Initial in vivo PK studies to confirm oral bioavailability and brain exposure were conducted at Pharmaron (Beijing, China) in non‐fasted male CD‐1 mice (6–8 weeks of age; sourced from Vital River). […] The dose volume was 10 mL/kg. Next, we evaluated brain and plasma PK of 10 mg/kg (1 hour pre, IP, n = 3). […]
experimentalEndpoint: MRT inf (h)
Express it in h; write the number only.

### Prompt Query: MRT inf; subject: CC(C)NC(=O)N1CC[C@H](NC2=Nc3cc(F)ccc3N(CC(F)F)c3ccc(Cl)cc32)C1
### Response 2.19

Cited source: paper PMC12741935
